assay: Tmax in Sprague-Dawley rat at 10 mg/kg, po measured for 3 to 1440 mins by HPLC analysis; assay type: ADME, organism-based; conditions: in vivo, time 3-1440 min
PROPERTY: Tmax (min)
Answers are plain numbers, in min.

Notebook: CCc1ccccc1NC(=O)c1cncc(-c2ccc(C(=O)N3CCNCC3)cc2)c1 , Tmax read as 43.8

* * *

Assignment: determine reported inhibition for the given compounds.
biological target: CDK8/Cyclin C (Homo sapiens) (UniProt P49336+P24863); assay: Inhibition of recombinant full length His tagged human CDK8/Cyclin C expressed in Baculovirus at 200 nM incubated for 60 mins in presence of ATP by ADP-Glo kinase assay
One number for each entry, in %.

As a guide, the following entries are already answered.
| SMILES_STRING | UNIT_SYMBOL | inhibition |
| --- | --- | --- |
| O=C(Nc1ccc(OC(F)(F)F)cc1)c1cc(O)cc(-c2ccc(C(=O)N3CCNCC3)cc2)c1 | % | 5 |
| Nc1cccc(NC(=O)c2cncc(-c3ccc(C(=O)N4CCNCC4)cc3)c2)c1 | % | 59 |

Go through the list and state inhibition for each entry.
1. O=C(Nc1cccc(C(F)(F)F)c1)c1cc(O)cc(-c2ccc(C(=O)N3CCNCC3)cc2)c1
2. O=c1cc(-c2ccccc2)oc2cc(-c3ccc(CN4CCNCC4)cc3)cc(O)c12
3. O=c1cc(-c2ccccc2)oc2cc(-c3cncnc3)cc(O)c12
4. O=C(Nc1ccccc1)c1cncc(-c2ccc(C(=O)N3CCNCC3)cc2)c1
5. O=C(Nc1cccc(OC(F)(F)F)c1)c1cncc(-c2ccc(C(=O)N3CCNCC3)cc2)c1
6. Cc1cccc(NC(=O)c2cc(O)cc(-c3ccc(C(=O)N4CCNCC4)cc3)c2)c1

1. 15
2. 69
3. 35
4. 79
5. 44
6. 20

O=C(Nc1ccccc1F)c1cncc(-c2ccc(C(=O)N3CCNCC3)cc2)c1 on CDK8/Cyclin C (Homo sapiens) (UniProt P49336+P24863) gives inhibition = 55

* * *

Assignment: determine reported Ratio for the given compounds.
experiment: Transcriptional activity of AP-1 in R848-stimulated mouse BMDC cells transfected with pAP1-luc assessed as ratio of AP-1 activity at 5 uM treated for 24 hrs followed by R848 stimulation for 4 hrs by luminescence based microplate reader analysis relative to control; assay type: functional; details: time 28 hrs

| SMILES_STRING | Ratio |
| --- | --- |
| O=c1cc(-c2ccccc2)oc2cc(-c3ccc(N4CCNCC4)cc3)cc(O)c12 | 1.5 |

Go through the list and state Ratio for each entry.
1. O=C(Nc1ccccc1)c1ccc(O)c(-c2ccc(C(=O)N3CCNCC3)cc2)c1
2. COc1cccc(NC(=O)c2cncc(-c3ccc(C(=O)N4CCNCC4)cc3)c2)c1
3. CC(=O)Nc1ccc(NC(=O)c2cncc(-c3ccc(C(=O)N4CCNCC4)cc3)c2)cc1
4. O=c1cc(-c2ccccc2)oc2cc(-c3ccc(C(F)(F)F)cc3)cc(O)c12
5. Nc1ccc(-c2cc(O)c3c(=O)cc(-c4ccccc4)oc3c2)cc1
6. O=C(Nc1ccccc1)c1cccc(-c2ccc(C(=O)N3CCNCC3)cc2)c1
7. Cc1ccccc1NC(=O)c1cncc(-c2ccc(C(=O)N3CCNCC3)cc2)c1

1.2
2
1.1
1.4
2.6
1.7
1.5

* * *

experiment: AUC (0 to infinity) in Sprague-Dawley rat at 10 mg/kg, po measured for 3 to 1440 mins by HPLC analysis; format: ADME, organism-based; details: in vivo
PROPERTY: AUC(0-inf) (ng·h/mL)
Numbers only, in ng·h/mL.

Notebook: CCc1ccccc1NC(=O)c1cncc(-c2ccc(C(=O)N3CCNCC3)cc2)c1 , AUC(0-inf) read as 520

* * *

target: CDK8/Cyclin C (Homo sapiens) (UniProt P49336+P24863); assay: Inhibition of recombinant full length His tagged human CDK8/Cyclin C expressed in Baculovirus at 200 nM incubated for 60 mins in presence of ATP by ADP-Glo kinase assay
PROPERTY: inhibition (%)
Give bare numbers, in %.

| SMILES_STRING | PROPERTY | MEASURED |
| --- | --- | --- |
| O=C(Nc1ccccc1)c1cc(-c2ccc(C(=O)N3CCNCC3)cc2)ccc1O | inhibition | 54 |
| CC(C)c1ccccc1NC(=O)c1cncc(-c2ccc(C(=O)N3CCNCC3)cc2)c1 | inhibition | 58 |
| O=C(Nc1ccc(C(F)(F)F)cc1)c1cc(O)cc(-c2ccc(C(=O)N3CCNCC3)cc2)c1 | inhibition | 40 |
| CC(C)c1cccc(NC(=O)c2cncc(-c3ccc(C(=O)N4CCNCC4)cc3)c2)c1 | inhibition | 64 |
| Cc1ccc(-c2cc(O)c3c(=O)cc(-c4ccccc4)oc3c2)cc1 | inhibition | 62 |

Go through the list and state inhibition for each entry.
1. Cc1noc(C)c1-c1cc(O)c2c(=O)cc(-c3ccccc3)oc2c1
2. O=C(Nc1ccc(C(F)(F)F)cc1)c1cncc(-c2ccc(C(=O)N3CCNCC3)cc2)c1
3. O=C(Nc1ccc(OC(F)(F)F)cc1)c1cncc(-c2ccc(C(=O)N3CCNCC3)cc2)c1
4. CC(=O)Nc1ccc(-c2cc(O)c3c(=O)cc(-c4ccccc4)oc3c2)cc1
5. COc1cc(-c2cc(O)c3c(=O)cc(-c4ccccc4)oc3c2)cc(OC)c1OC

1. 12
2. 23
3. 55
4. 54
5. 27

* * *

Assignment: determine reported log10(IC50) for the given molecules.
target: CDK8/Cyclin C (Homo sapiens); assay: Inhibition of recombinant full length His tagged human CDK8/Cyclin C expressed in Baculovirus incubated for 60 mins in presence of ATP by ADP-Glo kinase assay
Sequence (P49336 whole entry): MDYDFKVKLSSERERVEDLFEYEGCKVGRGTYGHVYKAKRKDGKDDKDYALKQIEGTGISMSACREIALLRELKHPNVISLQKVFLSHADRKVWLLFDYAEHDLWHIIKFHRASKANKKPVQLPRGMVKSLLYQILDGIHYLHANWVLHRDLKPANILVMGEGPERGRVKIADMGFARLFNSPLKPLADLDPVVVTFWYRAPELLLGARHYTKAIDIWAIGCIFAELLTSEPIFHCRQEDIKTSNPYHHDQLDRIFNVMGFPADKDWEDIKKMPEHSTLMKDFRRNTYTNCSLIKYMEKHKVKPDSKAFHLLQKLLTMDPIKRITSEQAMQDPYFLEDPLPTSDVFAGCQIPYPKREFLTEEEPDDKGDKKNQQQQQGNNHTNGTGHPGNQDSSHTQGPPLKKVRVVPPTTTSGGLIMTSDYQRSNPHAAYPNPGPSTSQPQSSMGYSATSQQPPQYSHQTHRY
Sequence (P24863 whole entry, further chain): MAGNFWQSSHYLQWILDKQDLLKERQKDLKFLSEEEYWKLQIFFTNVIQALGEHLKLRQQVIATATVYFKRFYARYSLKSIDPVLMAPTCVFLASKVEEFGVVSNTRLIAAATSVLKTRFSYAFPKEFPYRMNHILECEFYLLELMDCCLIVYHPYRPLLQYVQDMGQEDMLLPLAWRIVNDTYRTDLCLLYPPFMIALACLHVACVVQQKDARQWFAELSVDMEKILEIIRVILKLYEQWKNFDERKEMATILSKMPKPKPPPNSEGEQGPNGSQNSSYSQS
In our notation, the value equals log10 of IC50 in nM.

As a guide, the following entries are already answered.
| SMILES_STRING | MEASURED |
| --- | --- |
| Cc1ccc(-c2cc(O)c3c(=O)cc(-c4ccccc4)oc3c2)cc1 | 2.19 |
| O=C(c1ccc(-c2cc(O)c3c(=O)cc(-c4ccccc4)oc3c2)cc1)N1CCNCC1 | 1.86 |
| COc1c(O)cc(O)c2c(=O)cc(-c3ccccc3)oc12 | 3.77 |
| Nc1ccc(-c2cc(O)c3c(=O)cc(-c4ccccc4)oc3c2)cc1 | 2.05 |
| Nc1ncc(C(=O)Nc2ccccc2)cc1-c1ccc(C(=O)N2CCNCC2)cc1 | 2.41 |

O=C(Nc1ccccc1)c1cccc(-c2ccc(C(=O)N3CCNCC3)cc2)c1 on CDK8/Cyclin C (Homo sapiens) gives log10(IC50) = 2.21

* * *

biological target: CDK8/Cyclin C (Homo sapiens) (UniProt P49336+P24863); experiment: Inhibition of recombinant full length His tagged human CDK8/Cyclin C expressed in Baculovirus at 200 nM incubated for 60 mins in presence of ATP by ADP-Glo kinase assay
PROPERTY: inhibition (%)
Answers are plain numbers, in %.

| SMILES_STRING | inhibition, % |
| --- | --- |
| COc1cccc(NC(=O)c2cc(O)cc(-c3ccc(C(=O)N4CCNCC4)cc3)c2)c1 | 36 |
| COc1ccc(NC(=O)c2cncc(-c3ccc(C(=O)N4CCNCC4)cc3)c2)cc1 | 77 |

# context switch: different compound, same inhibition
Notebook: O=C(Nc1ccccc1)c1cc(-c2ccc(C(=O)N3CCNCC3)cc2)ccn1 , inhibition read as 78

* * *

Assignment: determine reported inhibition for the given compounds.
molecular target: CDK8/Cyclin C (Homo sapiens) (UniProt P49336+P24863); assay: Inhibition of recombinant full length His tagged human CDK8/Cyclin C expressed in Baculovirus at 200 nM incubated for 60 mins in presence of ATP by ADP-Glo kinase assay
Give bare numbers, in %.

As a guide, the following entries are already answered.
| SMILES_STRING | inhibition / % |
| --- | --- |
| O=c1cc(-c2ccccc2)oc2cc(-c3ccc(N4CCNCC4)cc3)cc(O)c12 | 53 |
| CC(C)(C)c1ccc(NC(=O)c2cncc(-c3ccc(C(=O)N4CCNCC4)cc3)c2)cc1 | 54 |
| O=c1cc(-c2ccccc2)oc2cc(-c3ccc(C(F)(F)F)cc3)cc(O)c12 | 28 |

Notebook: CC(C)(C)c1ccc(NC(=O)c2cc(O)cc(-c3ccc(C(=O)N4CCNCC4)cc3)c2)cc1 , inhibition read as 35

* * *

test: Transcriptional activity of AP-1 in R848-stimulated mouse BMDC cells transfected with pAP1-luc assessed as ratio of AP-1 activity at 5 uM treated for 24 hrs followed by R848 stimulation for 4 hrs by luminescence based microplate reader analysis relative to control; assay type: functional; conditions: time 28 hrs
PROPERTY: Ratio
Give bare numbers.

Go through the list and state Ratio for each entry.
1. O=c1cc(-c2ccccc2)oc2cc(-c3ccccc3)cc(O)c12
2. CN(C)c1ccc(-c2cc(O)c3c(=O)cc(-c4ccccc4)oc3c2)cc1

1. 1.5
2. 1.4

Go through the list and state Ratio for each entry.
1. O=C(Nc1ccccc1)c1ccnc(-c2ccc(C(=O)N3CCNCC3)cc2)c1
2. CCc1ccc(NC(=O)c2cncc(-c3ccc(C(=O)N4CCNCC4)cc3)c2)cc1
3. Cc1cccc(NC(=O)c2cncc(-c3ccc(C(=O)N4CCNCC4)cc3)c2)c1
4. O=C(c1ccc(-c2cc(O)c3c(=O)cc(-c4ccccc4)oc3c2)cc1)N1CCNCC1
5. COc1ccc(NC(=O)c2cncc(-c3ccc(C(=O)N4CCNCC4)cc3)c2)cc1

1. 2.4
2. 1.9
3. 1.6
4. 2.4
5. 1.7

Go through the list and state Ratio for each entry.
1. Nc1ccccc1NC(=O)c1cncc(-c2ccc(C(=O)N3CCNCC3)cc2)c1
2. CN1CCN(c2ccc(-c3cc(O)c4c(=O)cc(-c5ccccc5)oc4c3)cc2)CC1
3. Nc1ncc(-c2ccc(C(=O)N3CCNCC3)cc2)cc1C(=O)Nc1ccccc1

1.63
1.4
2.7
